Entry source: the supplement of paper PMC6555819

// reported PBM binding z-score for each item listed
# Test system: PXR:RXRa (NR concentration 270 nM, RXRa partner concentration 90 nM)
# EXPERIMENT_SUMMARY: PBM binding z-score (relative to random genomic background probes); higher = stronger binding; sequences stand for … in GC…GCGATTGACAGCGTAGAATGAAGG
Reply: number alone, nothing else.

As a guide, the following entries are already answered.
In [3]: df
Out[3]:
                       entry_sequence  data_value
0  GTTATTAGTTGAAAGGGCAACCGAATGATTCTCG        1.26
1  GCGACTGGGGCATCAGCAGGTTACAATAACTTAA      0.0826
2  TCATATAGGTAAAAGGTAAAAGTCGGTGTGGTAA        1.39

Turning now to a further record.
Record request: PBM binding z-score value, item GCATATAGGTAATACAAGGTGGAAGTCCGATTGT 0.192
